System: SF-268 CNS
assay_protocol: NCI-60 one-dose screen, 48 h
study_conditions: 10 µM unless noted
The panel holds about 83,000 compounds, 20% with a hit somewhere; the sample as a whole holds those more often. The source made the active and inactive calls. How the source made its calls: active means growth percent below 10; inactive means the rest.
Possible outcomes: yes (1) (active), no (0) (inactive)

[[record]]
structure_smiles_string = "C=C1c2nc3ccccc3n2C=C(c2ccc(OC)cc2)N1Cc1ccccc1"
label_value = "no (0)"

[[record]]
structure_smiles_string = "O=C(COc1cccc(/C=C2\\COc3ccccc3C2=O)c1)Nc1nccs1"
label_value = "no (0)"

[[record]]
structure_smiles_string = "COc1cc(Nc2cc(C)nc(N3CCN(c4ccnc5cc(Cl)ccc45)CC3)n2)cc(OC)c1"
label_value = "no (0)"

[[record]]
structure_smiles_string = "COc1cc(/C=C/c2cc(/C=C/c3ccc(O)c(OC)c3)n(-c3c(C)cccc3C)c(=O)n2)ccc1O"
label_value = "yes (1)"

[[record]]
structure_smiles_string = "O=c1cc(CSc2nnc(-c3ccc(F)cc3)o2)c2ccc3ccccc3c2o1"
label_value = "no (0)"

